# Study target: human gene recombinant 5-HT7 receptor expressed in CHO cells (Homo sapiens, UniProt P34969)
# Construct: expressed in transfected cells; host or cells: CHO cells (membrane preparation)
# Sequence (P34969 whole entry): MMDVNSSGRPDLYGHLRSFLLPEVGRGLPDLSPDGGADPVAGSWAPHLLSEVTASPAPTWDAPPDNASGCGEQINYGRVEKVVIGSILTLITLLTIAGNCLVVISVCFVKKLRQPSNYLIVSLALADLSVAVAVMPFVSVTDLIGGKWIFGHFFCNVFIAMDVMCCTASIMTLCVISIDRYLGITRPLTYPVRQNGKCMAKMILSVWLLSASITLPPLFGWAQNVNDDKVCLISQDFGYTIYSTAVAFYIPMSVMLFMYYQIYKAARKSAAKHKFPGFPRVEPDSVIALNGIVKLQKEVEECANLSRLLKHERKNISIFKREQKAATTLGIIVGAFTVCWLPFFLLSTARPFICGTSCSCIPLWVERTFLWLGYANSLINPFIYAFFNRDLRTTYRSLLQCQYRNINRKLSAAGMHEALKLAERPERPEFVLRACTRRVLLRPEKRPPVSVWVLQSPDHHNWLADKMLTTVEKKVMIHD
# Measurement description: Binding affinity for the 5-HT7 serotonin receptor ([3H]LSD radioligand)
# Measurement conditions: 10 μM
Counter-ions that a name gives are not always drawn.
Consider the following compounds and their measured inhibition at 10 µM readings.
Readout kind: inhibition at 10 µM (%)

Compound | Readout kind | Recorded value
c1ccc(CC2CCN(CCCCCCn3c4ccccc4c4ccccc43)CC2)cc1 | inhibition at 10 µM | 86.8
COc1ccccc1N1CCN(CCCCCCn2c3ccccc3c3ccccc32)CC1 | inhibition at 10 µM | 85.7
CC1CCN(CCCCCCn2c3ccccc3c3ccccc32)CC1 | inhibition at 10 µM | 82.9
O=C(CCCN1CCN(c2ccccc2O)CC1)n1c2ccccc2c2ccccc21 | inhibition at 10 µM | 97
O=C(CCCCN1CCC(Cc2ccccc2)CC1)n1c2ccccc2c2ccccc21 [Example 2.26, hydrochloride] | inhibition at 10 µM | 97.4
Oc1ccccc1N1CCN(CCCn2c3ccccc3c3ccccc32)CC1 | inhibition at 10 µM | 94.7
O=C(CCCCCN1CCC(Cc2ccccc2)CC1)n1c2ccccc2c2ccccc21 [Example 2.10, hydrochloride] | inhibition at 10 µM | 103
c1ccc(C2CCN(CCCCCCn3c4ccccc4c4ccccc43)CC2)cc1 | inhibition at 10 µM | 89.9
CC(=O)N1CCN(CCCCCCn2c3ccccc3c3ccccc32)CC1 | inhibition at 10 µM | 63.1
CCCCN(C)CCCCCC(=O)n1c2ccccc2c2ccccc21 [Example 2.1, hydrochloride] | inhibition at 10 µM | 82.8
c1ccc(CN2CCN(CCCCCn3c4ccccc4c4ccccc43)CC2)cc1 | inhibition at 10 µM | 86.8
CCCCN(C)CCCCCCn1c2ccccc2c2ccccc21 | inhibition at 10 µM | 70.7
c1ccc(CN2CCN(CCCCCCn3c4ccccc4c4ccccc43)CC2)cc1 | inhibition at 10 µM | 86
COc1ccccc1N1CCN(CCCC(=O)n2c3ccccc3c3ccccc32)CC1 | inhibition at 10 µM | 97.7
COc1ccccc1N1CCN(CCCCCn2c3ccccc3c3ccccc32)CC1 | inhibition at 10 µM | 91.5
c1ccc(C2CCN(CCCCn3c4ccccc4c4ccccc43)CC2)cc1 | inhibition at 10 µM | 94.4
CN1CCN(CCCCCC(=O)n2c3ccccc3c3ccccc32)CC1 [Example 2.12, hydrochloride] | inhibition at 10 µM | 50
O=C(CCCN1CCN(Cc2ccccc2)CC1)n1c2ccccc2c2ccccc21 [Example 2.32, hydrochloride] | inhibition at 10 µM | 90.8
COc1ccccc1N1CCN(CCCn2c3ccccc3c3ccccc32)CC1 | inhibition at 10 µM | 90.7
CC1CCCN(CCCCCC(=O)n2c3ccccc3c3ccccc32)C1 (centres unmarked) [Example 2.5, hydrochloride] | inhibition at 10 µM | 84.6
COc1ccccc1N1CCN(CCCCC(=O)n2c3ccccc3c3ccccc32)CC1 [Example 2.31, hydrochloride] | inhibition at 10 µM | 99.6
O=C(CCCCCN1CCN(c2ccccc2O)CC1)n1c2ccccc2c2ccccc21 | inhibition at 10 µM | 100
CC1CCCN(CCCCC(=O)n2c3ccccc3c3ccccc32)C1 (centres unmarked) [Example 2.21, hydrochloride] | inhibition at 10 µM | 69.4
